// data source = the supplement of paper PMC10065799

- target.system: Fes (UniProt P07332)
- Sequence (P07332 whole entry, looked up): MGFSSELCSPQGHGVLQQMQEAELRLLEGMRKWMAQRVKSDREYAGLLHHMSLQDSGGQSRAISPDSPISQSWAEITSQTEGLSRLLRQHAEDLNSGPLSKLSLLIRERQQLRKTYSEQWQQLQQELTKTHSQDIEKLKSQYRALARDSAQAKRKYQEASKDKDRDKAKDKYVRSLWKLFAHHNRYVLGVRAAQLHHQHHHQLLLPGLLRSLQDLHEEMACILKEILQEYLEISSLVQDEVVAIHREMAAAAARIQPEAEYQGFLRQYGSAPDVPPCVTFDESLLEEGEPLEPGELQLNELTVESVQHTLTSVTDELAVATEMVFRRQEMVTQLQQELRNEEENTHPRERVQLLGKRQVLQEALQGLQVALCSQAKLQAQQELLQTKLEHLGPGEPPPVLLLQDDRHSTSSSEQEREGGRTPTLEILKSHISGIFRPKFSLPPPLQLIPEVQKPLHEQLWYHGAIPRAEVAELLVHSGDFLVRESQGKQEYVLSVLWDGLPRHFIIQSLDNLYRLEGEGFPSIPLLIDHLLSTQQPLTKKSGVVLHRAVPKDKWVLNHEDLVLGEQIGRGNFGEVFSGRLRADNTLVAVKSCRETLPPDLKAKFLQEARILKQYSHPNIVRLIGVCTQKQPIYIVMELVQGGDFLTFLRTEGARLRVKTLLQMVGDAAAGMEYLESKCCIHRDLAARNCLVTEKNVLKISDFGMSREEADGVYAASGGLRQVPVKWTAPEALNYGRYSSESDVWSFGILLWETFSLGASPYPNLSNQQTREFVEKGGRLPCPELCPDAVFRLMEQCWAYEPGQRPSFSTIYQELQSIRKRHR
- test.protocol: phosphorylation enrichment, bacterial display (enrichment ratio); higher = better substrate or ligand; peptides without Tyr show the background;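 further: 11-residue human phosphosite peptides and single-mutation variants displayed on the E. coli surface, counted by deep sequencing, each peptide's frequency after selection divided by its frequency in the unselected input library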;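 further: frequency after pTyr selection over input frequency; kinase dosed for 20-30% of maximal phosphorylation in three min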
recorded.endpoint: phosphorylation enrichment
Quick one: just the number, no unit, thanks!

> print(dat)
                     residue.string  measured.value
1        SKNFTYIWWLN [PSG4_Y271_YF]            1.36
2  WTAHSYRMGSA [ARHGEF7_Y785_T790A]           0.736
3                       GGGMIYPLDLF            1.02
4     CTTLHYNYMCN [TP53_Y234_I232L]            1.01
5         GDPTEYYSTAI [IGSF22_Y501]           0.873

Query block: Need phosphorylation enrichment of RLLRGYDQLAY [HLA-C_Y137_S140L] , thanks.
Result block: 1.02

Query block: What value of phosphorylation enrichment has been recorded for this entry: SVTCTYPPALN [TP53_Y126_S127P]
Result block: 0.873

Query block: What phosphorylation enrichment value was documented for this sequence, ILNANYMAKRL [GLDC_Y839] ?
Result block: 0.514

Query block: Given the sequence LHRAHYDLCHT [AHSG_Y314_R317C] , what is its reported phosphorylation enrichment?
Result block: 1.12

Query block: Please report the recorded phosphorylation enrichment for HNVPICEGYAL [ACTC1_Y168_Y168C] .
Result block: 1

* * *

- target.system: Jak2 (UniProt O60674)
- Sequence (O60674 whole entry, looked up): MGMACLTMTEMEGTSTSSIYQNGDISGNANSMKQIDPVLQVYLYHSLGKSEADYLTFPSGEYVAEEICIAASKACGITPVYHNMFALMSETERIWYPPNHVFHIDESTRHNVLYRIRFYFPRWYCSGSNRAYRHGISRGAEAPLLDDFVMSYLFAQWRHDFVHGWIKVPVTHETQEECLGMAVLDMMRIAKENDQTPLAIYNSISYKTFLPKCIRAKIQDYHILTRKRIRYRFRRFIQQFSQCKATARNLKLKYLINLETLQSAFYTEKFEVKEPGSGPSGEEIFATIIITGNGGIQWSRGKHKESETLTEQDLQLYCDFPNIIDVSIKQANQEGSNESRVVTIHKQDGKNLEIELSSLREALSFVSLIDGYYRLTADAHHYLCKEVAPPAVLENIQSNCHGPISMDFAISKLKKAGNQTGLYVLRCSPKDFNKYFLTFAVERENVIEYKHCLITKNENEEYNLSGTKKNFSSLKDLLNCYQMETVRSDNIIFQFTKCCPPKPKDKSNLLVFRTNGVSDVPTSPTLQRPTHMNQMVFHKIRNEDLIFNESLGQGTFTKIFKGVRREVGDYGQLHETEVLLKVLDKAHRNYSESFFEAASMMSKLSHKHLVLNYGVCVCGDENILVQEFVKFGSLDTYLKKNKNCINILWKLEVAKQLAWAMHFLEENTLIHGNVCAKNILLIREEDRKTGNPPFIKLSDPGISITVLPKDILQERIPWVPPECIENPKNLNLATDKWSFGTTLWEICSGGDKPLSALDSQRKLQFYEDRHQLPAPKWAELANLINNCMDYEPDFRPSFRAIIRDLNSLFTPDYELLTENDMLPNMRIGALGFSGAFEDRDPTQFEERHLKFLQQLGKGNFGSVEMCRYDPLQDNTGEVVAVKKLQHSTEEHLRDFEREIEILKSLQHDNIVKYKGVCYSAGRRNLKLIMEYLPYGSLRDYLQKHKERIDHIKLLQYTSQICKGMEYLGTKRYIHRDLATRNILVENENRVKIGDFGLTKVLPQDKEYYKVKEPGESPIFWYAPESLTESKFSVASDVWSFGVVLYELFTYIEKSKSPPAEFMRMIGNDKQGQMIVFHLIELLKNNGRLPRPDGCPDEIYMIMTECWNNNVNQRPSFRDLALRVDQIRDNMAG
- test.protocol: phosphorylation enrichment, bacterial display (enrichment ratio); higher = better substrate or ligand; peptides without Tyr show the background
Reported phosphorylation enrichment values are given for each entry in this list.

Query block: Item VIGRMYDYHVL [RPF2_Y109] has what recorded phosphorylation enrichment?
Result block: 0.976

Query block: Please look up its phosphorylation enrichment: YLQEIYNSNNQ [FGG_Y140]
Result block: 0.998

Query block: Fill in the blank: the reported phosphorylation enrichment of QEKKGYFEDRC [GLUL_Y336_R341C] is ____.
Result block: 1

Query block: Record request: phosphorylation enrichment value, item LNRAGYCDALE [MTUS1_Y151_C148R]
Result block: 1

Query block: # lookup: phosphorylation enrichment of EASGIYVKSII [PATJ_Y396]
Result block: 0.983

* * *

- target.system: MERTK (UniProt Q12866)
- Sequence (Q12866 whole entry, looked up): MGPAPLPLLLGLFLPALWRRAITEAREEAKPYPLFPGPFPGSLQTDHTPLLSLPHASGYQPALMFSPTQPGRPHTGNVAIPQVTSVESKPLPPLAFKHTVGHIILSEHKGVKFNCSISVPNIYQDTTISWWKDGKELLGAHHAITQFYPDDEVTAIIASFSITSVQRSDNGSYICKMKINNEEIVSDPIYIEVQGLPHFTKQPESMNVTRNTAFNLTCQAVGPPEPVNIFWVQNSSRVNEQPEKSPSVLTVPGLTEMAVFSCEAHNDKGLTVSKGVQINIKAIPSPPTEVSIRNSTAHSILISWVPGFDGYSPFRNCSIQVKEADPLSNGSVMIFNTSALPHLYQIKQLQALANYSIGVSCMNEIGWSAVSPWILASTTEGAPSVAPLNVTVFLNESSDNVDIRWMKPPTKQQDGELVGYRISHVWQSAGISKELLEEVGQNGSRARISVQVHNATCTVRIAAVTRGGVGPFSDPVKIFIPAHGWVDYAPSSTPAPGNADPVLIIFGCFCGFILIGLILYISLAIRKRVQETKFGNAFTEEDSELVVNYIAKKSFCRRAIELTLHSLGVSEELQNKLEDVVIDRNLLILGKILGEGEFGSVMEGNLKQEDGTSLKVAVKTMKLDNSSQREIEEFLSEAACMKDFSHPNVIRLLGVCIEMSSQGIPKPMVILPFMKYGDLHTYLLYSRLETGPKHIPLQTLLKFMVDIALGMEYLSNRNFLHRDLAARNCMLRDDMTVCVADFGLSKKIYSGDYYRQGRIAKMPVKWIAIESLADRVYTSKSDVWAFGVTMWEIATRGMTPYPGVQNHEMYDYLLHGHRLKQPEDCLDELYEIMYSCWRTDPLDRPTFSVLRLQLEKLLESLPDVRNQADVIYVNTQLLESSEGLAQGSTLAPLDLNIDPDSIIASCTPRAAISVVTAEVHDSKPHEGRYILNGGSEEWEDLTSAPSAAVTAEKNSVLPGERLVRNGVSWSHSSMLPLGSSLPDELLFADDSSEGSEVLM
- test.protocol: phosphorylation enrichment, bacterial display (enrichment ratio); higher = better substrate or ligand; peptides without Tyr show the background
Values of phosphorylation enrichment greater than or equal to 0.4 map to T; values below map to F.

Example cases with answers are listed next.
> print(dat)
                        residue.string  answer.label
 1     AIKSFYAALID [RYR1_Y2426_M2423K]             T
 2     GYEEAYSVSKK [PAFAH1B1_Y28_F31S]             F
 3           MEKEKYVSYIS [JMJD1C_Y596]             T
 4        EFSNQYKATIG [RAB7A_Y37_K32E]             F
 5       ISDNACQYMLT [MYH7_Y162_Y162C]             T
 6          SFPSFYTSHVQ [NEFL_Y443_YF]             T
 7       LTTPTFGDLNH [TUBB_Y222_Y222F]             T
 8     HRAVEYLLMGI [RAD23A_Y197_T200M]             T
 9  MTFMFYRENLR [NLRP14_Y443_V441M_YF]             T
10       EDKFMYLEFPQ [PTEN_Y240_F241L]             T

Query block: hey, is phosphorylation enrichment for this one >= 0.4? KVALLYKPYFY [POLE_Y100_P99L]
Result block: T

Query block: Quick check, phosphorylation enrichment >= 0.4? LSQDVYEEDSF [RET_Y900_R897Q_YF]
Result block: T
